Molecular target: human GPR120 (Homo sapiens, UniProt Q5NUL3)
Construct: host or cells: HEK293 cells coexpressing Gqi5
Sequence (Q5NUL3 1-361): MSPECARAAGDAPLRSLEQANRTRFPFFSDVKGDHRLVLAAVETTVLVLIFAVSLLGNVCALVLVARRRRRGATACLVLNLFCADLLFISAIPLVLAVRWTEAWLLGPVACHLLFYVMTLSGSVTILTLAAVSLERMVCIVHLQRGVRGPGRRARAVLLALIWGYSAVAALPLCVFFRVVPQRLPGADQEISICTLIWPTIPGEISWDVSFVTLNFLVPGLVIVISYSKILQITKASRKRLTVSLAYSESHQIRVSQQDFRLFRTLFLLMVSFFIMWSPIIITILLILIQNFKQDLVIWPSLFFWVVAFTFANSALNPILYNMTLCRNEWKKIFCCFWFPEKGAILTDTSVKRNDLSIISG
Experiment: Intracellular Ca2+ (FLIPR Calcium 4, Flexstation) assay in human GPR120 stable HEK293 cell line coexpressing Gqi5
Type: cell-based
Conditions: 5 μM compound compared to the maximal activity of GW9508 at 6.7 μM (100%)
QUANTITY: % Activity at 5 μM (%)

> print(dat)
                                   compound            quantity  unit.name  endpoint.result
1  Cc1cc(COc2c(Cl)cc(CC(C)C(=O)O)cc2Cl)n(-c2ccc(Cl)cc2)n1 (stereo not drawn)  % Activity at 5 μM          %               92
2  O=C(O)CCc1cc(F)c(OCc2cncn2-c2ccccc2)c(F)c1  % Activity at 5 μM          %               70
3  Cc1cc(COc2ccc(CCC(C)C(=O)O)cc2)n(-c2ccc(Cl)cc2)n1 (stereo not drawn)  % Activity at 5 μM          %               68
4  Cc1cc(COc2c(F)cc(CC(C)C(=O)O)cc2F)n(-c2ccc(C#N)cc2)n1 (stereo not drawn)  % Activity at 5 μM          %               92
5  COc1ccc(-n2nc(C)cc2COc2c(F)cc(CCC(=O)O)cc2F)cc1  % Activity at 5 μM          %               71
6  Cc1cc(COc2c(F)cc(CCC(=O)O)cc2F)n(-c2ccc(F)cc2)n1  % Activity at 5 μM          %               71

Source listed as patent US20100216827A1.
